# experimental system: Sodium/hydrogen exchanger isoform 3 (Sus scrofa)
# Sequence (Q9XSD0 whole entry, canonical isoform): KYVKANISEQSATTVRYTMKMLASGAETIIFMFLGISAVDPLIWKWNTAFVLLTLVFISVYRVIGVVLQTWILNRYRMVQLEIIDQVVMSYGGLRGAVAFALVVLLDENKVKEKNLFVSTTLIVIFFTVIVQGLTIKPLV
# assay comment: Inhibition of pig NHE3 expressed in LAP1 cell assessed as intracellular pH recovery measured for 2 mins by CECF-AM dye based FLIPR assay
metric name: IC50 (nM)

INSERT INTO measurements (smiles_structure, experimental_system, measurement_unit, measured_number) VALUES
  ('Cc1nnc(C)n1-c1ccc(O[C@H]2c3cc(Cl)cc(Cl)c3C[C@@H]2N2CC[C@@H](O)C2)c(F)c1.Cl', 'Sodium/hydrogen exchanger isoform 3 (Sus scrofa)', 'nM', 7.8);

====

# assay comment: Plasma concentration in Sprague-Dawley rat at 10 mg/kg, po after 24 hrs administered as single dose by ESI-LC-MS/MS method
# Format: ADME, organism-based
metric name: concentration at 24 h

INSERT INTO assay_data (smiles_structure, metric_name, result) VALUES
  ('Cc1nnc(C)n1-c1ccc(O[C@H]2c3cc(Cl)cc(Cl)c3C[C@@H]2N2CC[C@@H](O)C2)c(F)c1.O=P(O)(O)O', 'concentration at 24 h', '< 1 ng/mL');
